Attribution: patent US20070015774A1

Quick list: remaining activity at 2 µg/mL per entry.
experimental_system: GST-p53 DNA binding domain (aa 92-aa 312) (Homo sapiens, UniProt P04637)
Sequence (P04637 92-312): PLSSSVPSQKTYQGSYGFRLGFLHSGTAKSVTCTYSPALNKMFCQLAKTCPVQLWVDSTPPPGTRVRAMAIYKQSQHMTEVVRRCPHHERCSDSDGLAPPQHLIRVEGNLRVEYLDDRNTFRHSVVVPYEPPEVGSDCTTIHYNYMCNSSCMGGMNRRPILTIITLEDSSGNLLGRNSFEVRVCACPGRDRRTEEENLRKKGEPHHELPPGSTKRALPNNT
procedure_text: Scintillation Proximity Assay (SPA), displacement of 3H STANDARD COMPOUND
condition_context: 1 h, 2 ug/mL of drug; letter rating; number in brackets = number of determinations averaged; read-out: SPA ASSAY % Residual T @ 2 ug/mL of drug (Average of)

COc1ccc(CN(C)Cc2nc(NCCCN(C)C)c3ccccc3n2)cc1 [38-27]; 40 to 80%
CN(C)CCCNc1nc(CN(C)Cc2cccc3c2OCO3)nc2ccccc12 [38-37]; 40 to 80%
CN(C)CCCNc1nc(CN(C)C2CCC2)nc2ccccc12 [38-68]; ≥ 80%
CN(C)CCCNc1nc(CN(C)C2CCC(C#N)(c3ccccc3)CC2)nc2ccccc12 (centres unmarked) [38-90]; 0 to 20%

Now for a further molecule.
Recorded remaining activity at 2 µg/mL (molecule CN(C)CCCNc1nc(CN(C)Cc2ccccc2OCC(=O)O)nc2ccccc12 [38-57] ): ≥ 80%

----------
experimental_system: GST-p53 DNA binding domain (aa 92-aa 312) (Homo sapiens, UniProt P04637)
procedure_text: Scintillation Proximity Assay (SPA), displacement of 3H STANDARD COMPOUND
condition_context: 1 h, 2 ug/mL of drug; letter rating; number in brackets = number of determinations averaged; read-out: SPA ASSAY % Residual T @ 2 ug/mL of drug (Average of)
measure: remaining activity at 2 µg/mL

Completed entries (count: 3):
CN(C)CCCNc1nc(CN(C)Cc2cc3ccccc3o2)nc2ccccc12; 40 to 80%
Cc1c(CN(C)Cc2nc(NCCCN(C)C)c3ccccc3n2)sc2ccccc12; 20 to 40%
CN(C)CCCNc1nc(CN(C)Cc2cccc3ccccc23)nc2ccccc12; 40 to 80%

Note: attention shifts to another entry.
"CN(C)CCCNc1nc(CN(C)Cc2ccoc2)nc2ccccc12" has a reported remaining activity at 2 µg/mL of 40 to 80%

----------
# remaining activity at 2 µg/mL values compiled below
experimental_system: GST-p53 DNA binding domain (aa 92-aa 312) (Homo sapiens)
procedure_text: Scintillation Proximity Assay (SPA), displacement of 3H STANDARD COMPOUND
condition_context: 1 h, 2 ug/mL of drug; letter rating; number in brackets = number of determinations averaged; read-out: SPA ASSAY % Residual T @ 2 ug/mL of drug (Average of)

Would you please look over these solved cases?
CN(C)CCCNc1nc(CN(C)Cc2ccc(-c3ccccc3)cc2)nc2ccccc12; ≥ 80%
CN(C)CCCNc1nc(CN(C)Cc2ccc(C#Cc3ccccc3)cc2)nc2ccccc12; ≥ 80%
CN(C)CCCNc1nc(CN(C)Cc2ccc(C#N)cc2)nc2ccccc12; 40 to 80%

Note to self: remaining activity at 2 µg/mL recorded for "CN(C)CCCNc1nc(CN(C)Cc2cccc3cc[nH]c23)nc2ccccc12" was 20 to 40%

Memo: CN(C)CCCNc1nc(CN(C)C2CCC(c3ccccc3)CC2)nc2ccccc12 (centres unmarked) , reported remaining activity at 2 µg/mL: 20 to 40%

Sure, the documented remaining activity at 2 µg/mL for "COC(=O)c1ccc(CN(C)Cc2nc(NCCCN(C)C)c3ccccc3n2)cc1" is 40 to 80%

Briefly, remaining activity at 2 µg/mL measured for "CN(C)CCCNc1nc(CN(C)Cc2c(F)cccc2F)nc2ccccc12" : 40 to 80%

Please fill in: remaining activity at 2 µg/mL reported for "CN(C)CCCNc1nc(CN(C)Cc2cccc(Cl)c2Cl)nc2ccccc12" = ≥ 80%

Kindly note the recorded remaining activity at 2 µg/mL for CC1CCC(N(C)Cc2nc(NCCCN(C)C)c3ccccc3n2)CC1 (centres unmarked) , which is 40 to 80%

Entry under test: "CN(C)CCCNc1nc(CN(C)C2CCC3(CC2)OCCO3)nc2ccccc12" . Its remaining activity at 2 µg/mL was 20 to 40%

response.value for "CN(C)CCCNc1nc(CN(C)Cc2cccn2S(=O)(=O)c2ccccc2)nc2ccccc12" (field: remaining activity at 2 µg/mL) = 40 to 80%
